# measurement_target: T1, Human EphA2 (ephrin receptor A2) (human, UniProt P29317 24-976)
# T1 construct: Endogenous protein in frozen human tumor tissue and tumor adjacent tissue, not a recombinant construct
# T1 sequence (P29317 24-976 limits assumed): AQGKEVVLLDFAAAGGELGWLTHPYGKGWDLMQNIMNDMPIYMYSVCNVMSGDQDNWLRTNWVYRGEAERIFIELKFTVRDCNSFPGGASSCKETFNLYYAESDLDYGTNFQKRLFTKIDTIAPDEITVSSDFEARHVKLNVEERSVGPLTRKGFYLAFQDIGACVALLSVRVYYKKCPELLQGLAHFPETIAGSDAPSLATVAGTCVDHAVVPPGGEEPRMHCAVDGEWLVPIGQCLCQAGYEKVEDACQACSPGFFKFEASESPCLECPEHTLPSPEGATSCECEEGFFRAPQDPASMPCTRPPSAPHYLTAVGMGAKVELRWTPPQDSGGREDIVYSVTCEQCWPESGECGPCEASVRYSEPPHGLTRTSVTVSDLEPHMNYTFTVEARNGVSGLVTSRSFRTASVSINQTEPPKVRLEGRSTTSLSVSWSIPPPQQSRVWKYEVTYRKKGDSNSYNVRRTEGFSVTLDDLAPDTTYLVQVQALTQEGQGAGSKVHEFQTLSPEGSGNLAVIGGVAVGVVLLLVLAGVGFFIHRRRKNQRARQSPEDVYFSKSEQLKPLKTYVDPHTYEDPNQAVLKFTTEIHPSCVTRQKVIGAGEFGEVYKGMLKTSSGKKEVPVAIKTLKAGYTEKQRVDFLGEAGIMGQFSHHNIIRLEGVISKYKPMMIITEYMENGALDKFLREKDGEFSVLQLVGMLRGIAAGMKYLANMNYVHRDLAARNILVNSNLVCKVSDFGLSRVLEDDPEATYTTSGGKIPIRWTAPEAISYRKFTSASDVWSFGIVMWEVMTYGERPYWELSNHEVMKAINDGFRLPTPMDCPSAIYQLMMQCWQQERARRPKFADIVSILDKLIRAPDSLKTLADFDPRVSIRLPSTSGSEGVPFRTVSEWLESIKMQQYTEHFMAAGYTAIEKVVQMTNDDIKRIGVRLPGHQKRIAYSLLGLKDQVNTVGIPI
# assay_remarks: IHC/IF score on frozen human tumor tissue, ANC
metric: IHC score
Would you mind answering with just the numeric figure?

The recorded IHC score for entry AB-009812 (antibody, mouse IgG2a, V domains shown) VH: QVQLQQWGAGLLKPSETLSLTCAVYGGSFSDYYWSWIRQPPGKGLEWIGEVNHSGSINYNNYNPSLKSRVTISVDPSKNQFSLKLTSVTAADTAVYYCAKPLRPHCTNGVCYSGDAFDIWGQGTMVTVAS VL: SYVLTQPPSVSVAPGQTARITCGGNNIGSKNVHWYQQKPGQAPVLVVYDDSDRPSGIPEQFSGSNSGNTATLTISRVEAGDEADYYCQVWDSSSDHLVFGGGTKLTVL equals 2

# credit: patent US20250051464A1
